Data credit: PubChem BioAssay AID1920066

Each entry below carries its reported EC50.
- ASSAY DETAILS: competitive binding to P. falciparum Hsp90 – cell lysate, FLECS, GFP-tagged PfHsp90, E. coli lysate, confirmation (AID 1920066)
- TEST CONDITIONS: liver stage Plasmodium parasite inhibition

# count of solved cases: 4
# COMPOUND, EXPERIMENTAL ENDPOINT, VAL
records = [
    ("CN(CC(=O)N1CCCC1)c1ncnc2cc(Cl)ccc12", "EC50", "> 30 µM"),
    ("CC[C@@H](C)Nc1cc(C(=O)NC2CC3CCC(C2)N3c2ccc(C(=O)C3CC3)cn2)c(C)cc1C(N)=O (some centres not stated)", "EC50", "0.24 µM"),
    ("CCOC(=O)NCc1ccc(-n2c(-c3cc(C(C)C)c(O)cc3O)n[nH]c2=S)cc1", "EC50", "1.5 µM"),
    ("Cn1cc(S(=O)(=O)N2CCN(C(=O)c3ccc(F)cc3)CC2)cc1C(N)=O", "EC50", "> 10 µM"),
]

// EC50 value for Cc1ccc(C(C)C)c(OCC(=O)Nc2cccc3cnccc23)c1 : > 30 µM

// EC50 value for NC(=O)c1ccc(NC(=O)CN2CSCC2=O)cc1 : > 30 µM

// EC50 value for CS(=O)(=O)c1cccc(C(=O)Nc2nc3ccccc3nc2N2CCCC2)c1 : > 30 µM

====

- Test system: Heat shock protein 90 (Plasmodium falciparum), GFP-tagged
- ASSAY DETAILS: competitive binding to P. falciparum Hsp90 – cell lysate, FLECS, GFP-tagged PfHsp90, E. coli lysate, confirmation (AID 1920066)
- TEST CONDITIONS: E. coli lysate PfHsp90-GFP ATP-resin elution, fluorescence; at 500 µM; stronger effect = higher value
Each entry below carries its reported relative binding (F/Fo).
API doc: respond with a numeric literal and nothing else, no unit.

# count of solved cases: 2
# COMPOUND, relative binding (F/Fo)
data = [
    ("NC(=O)c1ccc(NC(=O)CN2CSCC2=O)cc1", 2.54),
    ("CN(CC(=O)N1CCCC1)c1ncnc2cc(Cl)ccc12", 2.06),
]

// relative binding (F/Fo) value for CC[C@@H](C)Nc1cc(C(=O)NC2CC3CCC(C2)N3c2ccc(C(=O)C3CC3)cn2)c(C)cc1C(N)=O (stereo partly drawn) : 3.44
